These measurements were taken from ChEMBL document CHEMBL1201862.

System: XF498
measurementDescription: NCI tumour cell line growth inhibition, 48 h
Calls of active or inactive are those of the source. Cut-off read from the data, not from the text of the source: active = GI50 up to about 1.1 µM and inactive = higher.
Answer with one of the outcomes active, inactive

A selection of reference data follows.
- O=c1oc2cc(O)ccc2c2[nH]c3cc(O)ccc3c12: inactive
- CC1C=CC(C(N)C(=O)O)O1 (stereo not given): inactive
- O=C(c1ccc(F)cc1)c1cccc(C(=O)c2ccc(F)cc2)n1: inactive
- CC(C)c1cccc(C(C)C)c1NC(=O)C(=O)C(C(=O)c1ccccc1-c1ccccc1)C1OC(=O)c2ccccc21 (stereo not given): inactive
- O=C1C(Br)=CC2(C=C1Br)CCNC1=C2C2=NCCc3c[nH]c(c32)C1=O: active

Exercise: For NC(=O)N/N=C(\Cc1nc2ccc(C(=O)c3ccccc3)cc2nc1O)C(=O)Nc1ccc(Br)cc1 , what call appears in the results of this test?
Key: inactive

Exercise: Just curious, what result did C/C(=N\NS(=O)(=O)c1ccc(C)cc1)C(CN(C)C)C(c1ccccc1)c1c(O)c2ccccc2oc1=O (stereo not given) get here?
Key: inactive

----------
GI50 overview
Test system: DMS-114
measurementDescription: NCI tumour cell line growth inhibition, 48 h
The source made the active and inactive calls. No stated cut-off is given here; in the data, active = GI50 up to about 1.1 µM and inactive = higher.

* CC1CCC(=O)NCCCCC(=O)N1 (configuration not stated) | > 100 µM (inactive)
* CSCSCC(CO)NC(=O)/C=C\c1c(C)[nH]c(=O)[nH]c1=O (configuration not stated) | 5.56 µM (inactive)
* O=C(c1ccncc1)n1nc(-c2ccccc2)c(/N=N/c2ccc([N+](=O)[O-])cc2)c1-c1ccccc1 | 24.4 µM (inactive)
* O=C1C=CC2OC(c3ccccc3)C(O)C2O1 (configuration not stated) | 4.57 µM (inactive)
* Cc1ccc(C(=O)N2CCCCC2)cc1/N=N/N(C)C | > 100 µM (inactive)
* COC(=O)CCC(=O)Nc1cc(C)ccc1C | > 100 µM (inactive)

Exercise: State the recorded GI50 for this entry: C/C=C1\C=C(OC)CN(CCc2c[nH]c3ccccc23)C1
Key: 43.4 µM (inactive)

Exercise: Quick one: GI50 of NC(=O)C(=O)N/N=C1/c2ccccc2CC1C1(O)C(=O)Nc2c(Cl)cc(Cl)cc21 (configuration not stated) ?
Key: > 100 µM (inactive)

Exercise: Query: GI50; subject: CCCC(=O)c1ccc2c(ccc(=O)n2C)c1
Key: 31.6 µM (inactive)

----------
System: SW-620
measurementDescription: NCI tumour cell line growth inhibition, 48 h
Activity calls are given as the source filed them. No stated cut-off is given here; in the data, active = GI50 up to about 1.1 µM and inactive = higher.
measurementType: GI50

Before answering, review these 5 worked examples.
* COc1cc2c(cc1O)C(Cc1ccc(OCc3ccccc3)c(OCc3ccccc3)c1)N(C(=O)NCCc1ccccc1)CC2 (stereo not given) | > 100 µM (inactive)
* COC(=O)[C@H](Cc1c[nH]c2ccccc12)NP(=O)(O)OC[C@H]1O[C@@H](n2cc(C)c(=O)[nH]c2=O)C[C@@H]1N=[N+]=[N-] | > 100 µM (inactive)
* c1csc(-c2nn3c(C45CC6CC(CC(C6)C4)C5)nnc3s2)c1 | > 100 µM (inactive)
* Cc1ccc(/C=c2\c(=O)[nH]c3nc4ccccc4c(=O)n23)cc1 | 21.8 µM (inactive)
* CC(CSC(=N)N)C(N)=O (stereo not given) | > 100 µM (inactive)

Exercise: Entry O=C1C=CC2OC(c3ccccc3)C(O)C2O1 (stereo not given) has what GI50?
Key: 2.17 µM (inactive)

Exercise: Item Nc1n[n+]([O-])c2ccc(Cl)cc2[n+]1[O-] has what recorded GI50?
Key: 20.6 µM (inactive)

Exercise: What value of GI50 has been reported for the following compound? COc1ccc(C2C(=O)C(Cl)N2Nc2nc(C)cc(O)n2)cc1OC (stereo not given)
Key: 45.3 µM (inactive)

Exercise: Value lookup for GI50; key = COc1ccc(/C=C2\CNC/C(=C\c3ccc(OC)cc3)C2=O)cc1
Key: 15.8 µM (inactive)

Exercise: Looking for the measured GI50 of CC(=O)OC1C=C(C=O)C(O)(C=O)C2(C)CCCC(C)(C)C12 (stereo not given) , can you help?
Key: 0.485 µM (active)

----------
System: OVCAR-5
measurementDescription: NCI tumour cell line growth inhibition, 48 h
Activity calls are given as the source filed them. Rule as the data show it: active = GI50 up to about 1.1 µM and inactive = higher.
measurementType: GI50

Answered examples (3):
• Oc1cc(Cc2ccccc2)c(Cc2ccccc2)cc1O = > 10 µM (inactive)
• S=C1SCN(C2CCCCCCCCCCC2)CN1C1CCCCCCCCCCC1 = > 100 µM (inactive)
• O=C(c1cc2ccccc2o1)N(Cc1ccccc1)c1ccccc1 = 30.3 µM (inactive)

Exercise: So what GI50 did CS(=O)(=O)c1nc(-c2cc3c(c(S(C)(=O)=O)n2)CCC3)cc2c1CCCC2 get with OVCAR-5?
Key: > 100 µM (inactive)

Exercise: What GI50 appears in the records for this compound with OVCAR-5? N/C(=N\O)N/N=C\c1ccccc1O
Key: 37.5 µM (inactive)

Exercise: Form field - read-out: GI50; system: OVCAR-5; submitted item: C[N+](C)(C)CC1CCCC(C[N+](C)(C)C)C1O (stereo unspecified)
Key: > 100 µM (inactive)

----------
Recorded GI50 by entry
Test system: SNB-19
measurementDescription: NCI tumour cell line growth inhibition, 48 h
Activity calls are given as the source filed them. Rule as the data show it: active = GI50 up to about 1.1 µM and inactive = higher.

- CCC(C)C(C(=O)N/N=C1/SCC(=O)N1C)C(=O)N/N=C1/SCC(=O)N1C (stereo not given): > 100 µM (inactive)
- CCOC(=O)C1(C(=O)OCC)C[C@H]2CON=C2[C@@H]1c1ccc(C(F)(F)F)cc1: > 100 µM (inactive)
- Nc1n[n+]([O-])c2ccc(Cl)cc2[n+]1[O-]: 34.5 µM (inactive)
- COC(=O)C1c2cc3c(cc2C(OC2OC(C)C(OC)C(C)(OC)C2OC)CC1(C)O)C(=O)c1c(O)cc2c(c1C3=O)OC1OC2(C)C(O)C([N+](C)(C)[O-])C1O (stereo not given): 0.126 µM (active)
- COC(=O)c1c(C(=O)OC)c2ccccn2c1-c1cc(C)cc2c1C(=O)C=CC2=O: 13.7 µM (inactive)
- CC(C)CC(NC(=O)C(COc1ccc([N+](=O)[O-])cc1)Cc1ccccc1)C(=O)Nc1ccccc1 (stereo not given): 7.76 µM (inactive)
- O=C1c2ccccc2-c2ccc(N(Cc3ccc(Br)cc3)Cc3ccc(Br)cc3)cc21: > 100 µM (inactive)
- Cc1ccc(S[C@@](C=O)(NC(=O)OCc2ccccc2)C(F)(F)F)cc1: 21 µM (inactive)
- COc1cc(OC)c2c(=O)cc(-c3ccc(OC)c(OC)c3OC)oc2c1: > 100 µM (inactive)

Pending compound:
Exercise: Quick one: GI50 of COc1cc(C2C3=C(COC3=O)Oc3cc4c(cc32)OCO4)ccc1OC(C)=O (stereo not given) ?
Key: 0.35 µM (active)

----------
System: RPMI-8226
measurementDescription: NCI tumour cell line growth inhibition, 48 h
Activity calls are given as the source filed them. Cut-off read from the data, not from the text of the source: active = GI50 up to about 1.1 µM and inactive = higher.
Form entry, call: pick from active, inactive

- CC1(C)/C(=N\O)C2(OS(=O)(=O)C(F)(F)F)CCC1C2 (stereo not given): inactive
- c1cc2nnc1SCCCSc1ccc(nn1)SCCCSc1ccc(nn1)SCCCS2: inactive
- O=C1C(Br)=CC2(C=C1Br)CCNC1=C2C2=NCCc3c[nH]c(c32)C1=O: active
- O=C(NCCCNCCCNC(=O)c1cc(-c2ccccc2)nc2ccccc12)c1cc(-c2ccccc2)nc2ccccc12: inactive
- CC[C@@]1(O)C[C@H](OC2CC(N(C)C)C(OC3CC(O)C(OC4CCC(=O)C(C)O4)C(C)O3)C(C)O2)c2c(cc3c(c2O)C(=O)c2c(O)cccc2C3=O)[C@H]1C(=O)OC (stereo not given in full): active

Continue with the molecule presented below.
Exercise: Please state the recorded outcome for this molecule: N#CC1(C#N)C=CC(=C2OCC3CCCN23)C=C1 (stereo not given)
Key: inactive

----------
Test system: SK-MEL-2
measurementDescription: NCI tumour cell line growth inhibition, 48 h
Active and inactive are the calls of the source. Cut-off read from the data, not from the text of the source: active = GI50 up to about 1.1 µM and inactive = higher.
Use one of these outcomes when replying: T for active, F for inactive

Worked cases, answers included:
- N#CC1(C#N)C=CC(=C2OCC3CCCN23)C=C1 (stereo not given): F
- CCOP(=O)(OCC)Oc1c(OC)c2[nH]c(C(=O)OC)cc2c2c(C(=O)O)c[nH]c12: F
- COc1cc2ccc1OCc1cccc(n1)COc1ccc(cc1OC)/C=N\c1ccc(cc1)-c1ccc(cc1)/N=C\2: F
- COc1cc2cc(C(=O)N3CC(CCl)c4c3cc(N)c3ccccc43)[nH]c2c(OC)c1OC (stereo not given): T
- COc1ccc(/C=C2\CC3C4CC=C5C[C@@H](N6CCCC6)CC[C@]5(C)C4CC[C@]3(C)[C@H]2O)cc1OC (stereo not given in full): F

Exercise: How was CCOC(=O)C1(C(=O)OCC)C[C@H]2CON=C2[C@@H]1c1ccc(C(F)(F)F)cc1 classified in this test?
Key: F

Exercise: Each compound tested received a call. Report the one for Cc1cc2ncn(CC(=O)O)c2cc1C .
Key: F

Exercise: Returns: the outcome recorded for CC(=O)OCC1OC(N=[N+]=[N-])C(OC(C)=O)C(OC(C)=O)C1OC1OC(COC(C)=O)C(OC(C)=O)C(OC(C)=O)C1OC(C)=O (stereo not given) in this assay.
Key: F
